target: Human HER3, endogenous, on human cancer cell lines (SK-Br-3, MCF7, BT-474) (human, UniProt P21860 20-1342); assay: cell-based or functional assay
Sequence (P21860 20-1342): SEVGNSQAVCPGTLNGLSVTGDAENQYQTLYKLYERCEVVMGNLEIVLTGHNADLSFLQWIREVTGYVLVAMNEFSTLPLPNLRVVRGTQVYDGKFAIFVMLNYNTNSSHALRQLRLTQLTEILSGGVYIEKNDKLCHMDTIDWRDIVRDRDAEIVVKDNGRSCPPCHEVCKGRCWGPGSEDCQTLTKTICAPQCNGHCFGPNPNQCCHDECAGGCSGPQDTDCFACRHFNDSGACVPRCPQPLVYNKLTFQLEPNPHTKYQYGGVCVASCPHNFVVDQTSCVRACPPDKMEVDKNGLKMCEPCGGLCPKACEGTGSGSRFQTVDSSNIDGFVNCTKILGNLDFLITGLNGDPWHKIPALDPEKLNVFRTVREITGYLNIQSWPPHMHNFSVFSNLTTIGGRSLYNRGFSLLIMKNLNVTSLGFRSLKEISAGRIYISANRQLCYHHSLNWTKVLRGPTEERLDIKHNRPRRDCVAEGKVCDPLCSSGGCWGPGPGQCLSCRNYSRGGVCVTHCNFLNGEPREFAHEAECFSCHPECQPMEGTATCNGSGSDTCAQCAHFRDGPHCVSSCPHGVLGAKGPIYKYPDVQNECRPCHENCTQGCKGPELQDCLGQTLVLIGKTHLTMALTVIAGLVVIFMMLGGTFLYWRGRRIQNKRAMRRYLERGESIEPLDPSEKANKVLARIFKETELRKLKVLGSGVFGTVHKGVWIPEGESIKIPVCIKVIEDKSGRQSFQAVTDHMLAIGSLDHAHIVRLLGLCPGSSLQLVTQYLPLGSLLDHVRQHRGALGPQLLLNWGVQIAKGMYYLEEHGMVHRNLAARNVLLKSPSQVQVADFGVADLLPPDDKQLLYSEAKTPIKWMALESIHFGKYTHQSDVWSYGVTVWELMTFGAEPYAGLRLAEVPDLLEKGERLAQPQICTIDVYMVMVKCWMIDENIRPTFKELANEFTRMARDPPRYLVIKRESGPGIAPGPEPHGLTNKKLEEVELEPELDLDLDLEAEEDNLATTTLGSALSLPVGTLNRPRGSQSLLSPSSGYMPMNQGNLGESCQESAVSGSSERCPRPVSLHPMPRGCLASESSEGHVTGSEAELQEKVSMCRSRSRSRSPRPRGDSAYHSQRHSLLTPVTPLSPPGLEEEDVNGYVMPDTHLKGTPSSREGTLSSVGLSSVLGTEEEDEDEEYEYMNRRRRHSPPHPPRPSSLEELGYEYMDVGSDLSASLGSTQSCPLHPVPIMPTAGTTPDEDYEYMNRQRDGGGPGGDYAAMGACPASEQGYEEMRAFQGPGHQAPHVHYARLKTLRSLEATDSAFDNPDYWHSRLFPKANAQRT
Entries and their BT-474 proliferation IC50
Measured metric: BT-474 proliferation IC50 (nM)

MOR13762 (antibody, human IgG1, kappa, V domains shown, tested as IgG) VH: QVQLVQSGAEVKKPGESLKISCKGSGYSFTNTWVAWVRQMPGKGLEWMGIIYPGQSDTIYSPSFQGQVTISADKSISTAYLQWSSLKASDTAMYYCARVHIIQPPSAWSYNAMDVWGQGTLVTVSS VL: DIQMTQSPSSLSASVGDRVTITCRASQSISTYLNWYQQKPGKAPKLLIFGASNLQSGVPSRFSGSGSGTDFTLTISSLQPEDFATYYCQQSITELFTFGQGTKVEIKR :: 0.546
MOR13754 (antibody, human IgG1, kappa, V domains shown, tested as IgG) VH: QVQLVQSGAEVKKPGESLKISCKGSGYSFTSYWVAWVRQMPGKGLEWMGIIYPGGSDTIYSPSFQGQVTISADKSISTAYLQWSSLKASDTAMYYCARVHIIQPPSAWSYNAMDVWGQGTLVTVSS VL: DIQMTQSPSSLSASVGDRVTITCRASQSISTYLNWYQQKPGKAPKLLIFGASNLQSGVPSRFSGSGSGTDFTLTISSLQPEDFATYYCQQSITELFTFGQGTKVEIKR :: 8.01
MOR13761 (antibody, human IgG1, kappa, V domains shown, tested as IgG) VH: QVQLVQSGAEVKKPGESLKISCKGSGYSFTQTWVAWVRQMPGKGLEWMGIIYPGQSDTIYSPSFQGQVTISADKSISTAYLQWSSLKASDTAMYYCARVHIIQPPSAWSYNAMDVWGQGTLVTVSS VL: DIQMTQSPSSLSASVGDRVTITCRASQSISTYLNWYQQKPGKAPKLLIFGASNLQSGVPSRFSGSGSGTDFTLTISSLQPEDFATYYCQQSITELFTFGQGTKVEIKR :: 0.56
MOR13763 (antibody, human IgG1, kappa, V domains shown, tested as IgG) VH: QVQLVQSGAEVKKPGESLKISCKGSGYSFTSYWVAWVRQMPGKGLEWMGIIYPGQSDTIYSPSFQGQVTISADKSISTAYLQWSSLKASDTAMYYCARVHIIQPPSAWSYNAMDVWGQGTLVTVSS VL: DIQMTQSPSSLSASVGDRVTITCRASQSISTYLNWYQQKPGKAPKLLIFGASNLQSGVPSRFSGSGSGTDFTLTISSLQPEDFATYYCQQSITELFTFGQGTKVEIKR :: 0.671
MOR13756 (antibody, human IgG1, kappa, V domains shown, tested as IgG) VH: QVQLVQSGAEVKKPGESLKISCKGSGYSFTLTWVAWVRQMPGKGLEWMGIIYPGQSDTIYSPSFQGQVTISADKSISTAYLQWSSLKASDTAMYYCARVHIIQPPSAWSYNAMDVWGQGTLVTVSS VL: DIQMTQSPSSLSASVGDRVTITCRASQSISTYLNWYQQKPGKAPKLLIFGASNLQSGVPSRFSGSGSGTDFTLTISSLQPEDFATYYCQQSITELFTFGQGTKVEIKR :: 0.71
